Target: T1, human CCR1 (C-C chemokine receptor-1) (human, UniProt P32246 1-355)
T1 sequence (looked up): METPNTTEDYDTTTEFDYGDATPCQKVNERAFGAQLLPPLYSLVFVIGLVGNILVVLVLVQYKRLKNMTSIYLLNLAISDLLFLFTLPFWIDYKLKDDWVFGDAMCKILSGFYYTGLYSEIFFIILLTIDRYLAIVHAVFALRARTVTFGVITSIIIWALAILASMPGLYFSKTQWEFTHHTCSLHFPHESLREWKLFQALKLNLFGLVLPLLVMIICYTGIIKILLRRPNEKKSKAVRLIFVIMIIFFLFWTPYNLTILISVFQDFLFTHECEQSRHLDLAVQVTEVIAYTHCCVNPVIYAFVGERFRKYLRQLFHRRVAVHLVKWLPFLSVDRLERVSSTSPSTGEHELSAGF
Test: cell-based or functional assay
Observable: EC50, THP-1 cell chemotaxis (pM)

A = CCL23/CKβ8 digested with chymase (ligand) HATSADCCISYTPRSIPCSLLESYFETNSECSKPGVIFLTKKGRRFCANPSDKQVQVCMRMLKLDTRIKTRKN
B = CCL15/MIP-1δ digested with PMN sup #1 (ligand) VLNSFHFAADCCTSYISQSIPCSLMKSYFETSSECSKPGVIFLTKKGRQVCAKPSGPGVQDCMKKLKPYSI
C = CCL23α (CCL23/CKβ8, 22-120) (ligand) RVTKDAETEFMMSKLPLENPVLLDRFHATSADCCISYTPRSIPCSLLESYFETNSECSKPGVIFLTKKGRRFCANPSDKQVQVCMRMLKLDTRIKTRKN
Which order do these items take when sorted by rising EC50, THP-1 cell chemotaxis? List them. # the answer lists labels in the order requested
A, B, C
(A: 50 pM, B: 250 pM, C: 2500 pM)
